Attribution: ChEMBL document CHEMBL4118198

target.desc: Nonstructural polyprotein (Norovirus Hu/GI/10360/2010/VNM) (UniProt I1U3K2)
Sequence (I1U3K2 as listed by the source): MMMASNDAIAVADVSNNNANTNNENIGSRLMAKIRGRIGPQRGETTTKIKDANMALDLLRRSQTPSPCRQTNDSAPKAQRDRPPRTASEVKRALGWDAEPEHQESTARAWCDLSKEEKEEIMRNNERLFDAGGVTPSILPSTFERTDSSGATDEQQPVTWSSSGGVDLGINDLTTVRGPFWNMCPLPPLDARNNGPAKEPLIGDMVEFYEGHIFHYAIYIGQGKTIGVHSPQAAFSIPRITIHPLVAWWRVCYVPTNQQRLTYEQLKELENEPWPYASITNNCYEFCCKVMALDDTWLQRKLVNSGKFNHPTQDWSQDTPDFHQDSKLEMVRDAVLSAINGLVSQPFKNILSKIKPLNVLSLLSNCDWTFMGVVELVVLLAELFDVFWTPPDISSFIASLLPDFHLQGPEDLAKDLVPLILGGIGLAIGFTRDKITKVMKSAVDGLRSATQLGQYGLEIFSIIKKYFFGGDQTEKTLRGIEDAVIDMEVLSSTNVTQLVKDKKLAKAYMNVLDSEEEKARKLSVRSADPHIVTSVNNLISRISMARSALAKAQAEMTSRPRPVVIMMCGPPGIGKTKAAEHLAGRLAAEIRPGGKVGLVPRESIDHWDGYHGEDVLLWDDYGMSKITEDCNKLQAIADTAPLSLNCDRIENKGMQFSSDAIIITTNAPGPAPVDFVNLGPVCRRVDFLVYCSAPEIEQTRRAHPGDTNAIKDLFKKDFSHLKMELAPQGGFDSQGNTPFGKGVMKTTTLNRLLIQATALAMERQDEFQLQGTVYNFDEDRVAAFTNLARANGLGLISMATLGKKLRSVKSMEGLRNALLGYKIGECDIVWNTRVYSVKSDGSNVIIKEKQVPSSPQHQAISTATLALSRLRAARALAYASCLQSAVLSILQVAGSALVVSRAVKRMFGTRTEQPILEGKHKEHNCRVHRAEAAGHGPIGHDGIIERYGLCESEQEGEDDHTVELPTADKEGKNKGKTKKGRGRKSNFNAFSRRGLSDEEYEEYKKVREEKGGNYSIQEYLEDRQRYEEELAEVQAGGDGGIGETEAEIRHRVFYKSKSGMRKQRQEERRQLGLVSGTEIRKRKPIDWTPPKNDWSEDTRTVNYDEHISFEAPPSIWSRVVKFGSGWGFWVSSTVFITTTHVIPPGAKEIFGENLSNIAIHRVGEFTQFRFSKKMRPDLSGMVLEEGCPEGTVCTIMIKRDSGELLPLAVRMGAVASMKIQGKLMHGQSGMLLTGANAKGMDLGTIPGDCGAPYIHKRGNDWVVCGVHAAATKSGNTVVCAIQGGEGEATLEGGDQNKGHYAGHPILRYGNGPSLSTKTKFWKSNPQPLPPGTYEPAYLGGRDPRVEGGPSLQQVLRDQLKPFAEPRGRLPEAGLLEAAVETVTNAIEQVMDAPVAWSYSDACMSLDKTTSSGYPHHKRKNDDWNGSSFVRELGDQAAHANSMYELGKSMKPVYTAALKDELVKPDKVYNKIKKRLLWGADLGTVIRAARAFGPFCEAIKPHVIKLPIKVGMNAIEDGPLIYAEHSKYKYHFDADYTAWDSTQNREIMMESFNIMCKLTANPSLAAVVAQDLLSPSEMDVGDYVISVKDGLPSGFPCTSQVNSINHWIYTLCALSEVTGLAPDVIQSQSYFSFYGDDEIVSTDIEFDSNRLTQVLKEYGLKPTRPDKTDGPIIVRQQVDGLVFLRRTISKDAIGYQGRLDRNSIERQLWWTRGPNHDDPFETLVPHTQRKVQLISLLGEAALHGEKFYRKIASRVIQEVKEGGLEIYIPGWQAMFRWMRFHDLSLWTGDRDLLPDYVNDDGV
protocol.notes: Inhibition of Norovirus prototypic GI.1 3CL protease using HiLyte Fluor 488-labelled DFELQGPK as substrate incubated for 90 mins measured every mins for 20 mins by FRET assay
experimental.context: Norovirus GI.1
endpoint: IC90 (nM)

# molecule, target.desc, endpoint, test.value
records = [
    ("CC(C)C[C@H](NC(=O)[C@H](Cc1cccc2ccccc12)NC(=O)OCc1ccccc1)C(=O)N[C@H](C=O)C[C@@H]1CCCNC1=O", "Nonstructural polyprotein (Norovirus Hu/GI/10360/2010/VNM) (UniProt I1U3K2)", "IC90", 155),
    ("CC(C)C[C@H](NC(=O)[C@H](Cc1cccc2ccccc12)NC(=O)OCc1ccccc1)C(=O)N[C@@H](C[C@@H]1CCCNC1=O)C(O)S(=O)(=O)O (stereo not given in full)", "Nonstructural polyprotein (Norovirus Hu/GI/10360/2010/VNM) (UniProt I1U3K2)", "IC90", 2240),
    ("CC(C)C[C@H](NC(=O)[C@H](Cc1cccc2ccccc12)NC(=O)OCc1ccccc1)C(=O)N[C@@H](C[C@@H]1CCCNC1=O)C(=O)C(F)(F)F", "Nonstructural polyprotein (Norovirus Hu/GI/10360/2010/VNM) (UniProt I1U3K2)", "IC90", 2240),
    ("CC(C)C[C@H](NC(=O)[C@H](Cc1cccc2ccccc12)NC(=O)OCc1ccccc1)C(=O)N[C@H](/C=C(\\C#N)C(N)=O)C[C@@H]1CCCNC1=O", "Nonstructural polyprotein (Norovirus Hu/GI/10360/2010/VNM) (UniProt I1U3K2)", "IC90", 1700),
    ("CC(C)C[C@H](NC(=O)[C@H](Cc1cccc2ccccc12)NC(=O)OCc1ccccc1)C(=O)N[C@H](C=O)C[C@@H]1CCNC1=O", "Nonstructural polyprotein (Norovirus Hu/GI/10360/2010/VNM) (UniProt I1U3K2)", "IC90", 248),
]

* * *

Tested on: CCRF-CEM
protocol.notes: Cytotoxicity against human CEM cells assessed as reduction in cell viability after 6 days by trypan blue exclusion assay
Type: cell-based
experimental.context: 144 h

# compound, value.unit, result.qualifier, CC50
data = [
    ("CC(C)C[C@H](NC(=O)[C@H](Cc1cccc2ccccc12)NC(=O)OCc1ccccc1)C(=O)N[C@H](CO)CCC(=O)N1CCC1", "µM", "=", 2.2),
    ("CC(C)C[C@H](NC(=O)[C@H](Cc1cccc2ccccc12)NC(=O)OCc1ccccc1)C(=O)N[C@@H](C[C@@H]1CCCNC1=O)C(O)S(=O)(=O)O (stereo partly drawn)", "µM", "=", 18.3),
    ("CC(C)C[C@H](NC(=O)[C@H](Cc1cccc2ccccc12)NC(=O)OCc1ccccc1)C(=O)N[C@H](CO)Cn1ccnn1", "µM", "=", 0.3),
    ("CC(C)C[C@H](NC(=O)[C@H](Cc1cccc2ccccc12)NC(=O)OCc1ccccc1)C(=O)N[C@@H](C[C@@H]1CCCNC1=O)C(=O)C(F)(F)F", "µM", "=", 18.3),
    ("CC(C)C[C@H](NC(=O)[C@H](Cc1cccc2ccccc12)NC(=O)OCc1ccccc1)C(=O)N[C@H](C=O)C[C@@H]1CCNC1=O", "µM", "=", 39.5),
    ("CC(C)C[C@H](NC(=O)[C@H](Cc1cccc2ccccc12)NC(=O)OCc1ccccc1)C(=O)NC(/C=C/C=O)C[C@@H]1CCNC1=O (stereo partly drawn)", "µM", "=", 1.9),
    ("CC(C)C[C@H](NC(=O)[C@H](Cc1cccc2ccccc12)NC(=O)OCc1ccccc1)C(=O)NC(C[C@@H]1CCNC1=O)C1CO1 (stereo partly drawn)", "µM", "=", 14),
    ("CC(C)C[C@H](NC(=O)[C@H](Cc1cccc2ccccc12)NC(=O)OCc1ccccc1)C(=O)N[C@H](CCl)C[C@@H]1CCCNC1=O", "µM", "=", 26.6),
    ("CC(C)C[C@H](NC(=O)[C@H](Cc1cccc2ccccc12)NC(=O)OCc1ccccc1)C(=O)N[C@H](CO)CNC(=O)N1CCC1", "µM", "=", 2.2),
    ("CC(C)C[C@H](NC(=O)[C@H](Cc1cccc2ccccc12)NC(=O)OCc1ccccc1)C(=O)N[C@H](C=O)C[C@@H]1CCCNC1=O", "µM", "=", 31.6),
    ("CC(C)C[C@H](NC(=O)[C@H](Cc1cccc2ccccc12)NC(=O)OCc1ccccc1)C(=O)N[C@H](CS)C[C@@H]1CCNC1=O", "µM", ">", 100),
    ("CC(C)C[C@H](NC(=O)[C@H](Cc1cccc2ccccc12)NC(=O)OCc1ccccc1)C(=O)N[C@H](/C=C(\\C#N)C(N)=O)C[C@@H]1CCCNC1=O", "µM", "=", 9.1),
    ("CC(C)C[C@H](NC(=O)[C@H](Cc1cccc2ccccc12)NC(=O)OCc1ccccc1)C(=O)NC(C[C@@H]1CCNC1=O)C1OC1S(C)(=O)=O (stereo partly drawn)", "µM", "=", 63.9),
]

* * *

pIC50: −log10 of the molar value.
# pIC50 per entry for Nonstructural polyprotein (Norovirus Hu/GI/10360/2010/VNM, UniProt I1U3K2)

# compound, target.desc, pIC50
data = [
    ("CC(C)C[C@H](NC(=O)[C@H](Cc1cccc2ccccc12)NC(=O)OCc1ccccc1)C(=O)N[C@H](C=O)C[C@@H]1CCCNC1=O", "Nonstructural polyprotein (Norovirus Hu/GI/10360/2010/VNM, UniProt I1U3K2)", 7.10),
    ("CC(C)C[C@H](NC(=O)[C@H](Cc1cccc2ccccc12)NC(=O)OCc1ccccc1)C(=O)NC(C[C@@H]1CCNC1=O)C1OC1S(C)(=O)=O (stereo partly specified)", "Nonstructural polyprotein (Norovirus Hu/GI/10360/2010/VNM, UniProt I1U3K2)", "< 5.00"),
    ("CC(C)C[C@H](NC(=O)[C@H](Cc1cccc2ccccc12)NC(=O)OCc1ccccc1)C(=O)N[C@H](CO)Cn1ccnn1", "Nonstructural polyprotein (Norovirus Hu/GI/10360/2010/VNM, UniProt I1U3K2)", "< 6.00"),
    ("CC(C)C[C@H](NC(=O)[C@H](Cc1cccc2ccccc12)NC(=O)OCc1ccccc1)C(=O)NC(/C=C/C=O)C[C@@H]1CCNC1=O (stereo partly specified)", "Nonstructural polyprotein (Norovirus Hu/GI/10360/2010/VNM, UniProt I1U3K2)", "< 5.00"),
    ("CC(C)C[C@H](NC(=O)[C@H](Cc1cccc2ccccc12)NC(=O)OCc1ccccc1)C(=O)N[C@H](CO)CNC(=O)N1CCC1", "Nonstructural polyprotein (Norovirus Hu/GI/10360/2010/VNM, UniProt I1U3K2)", "< 4.00"),
    ("CC(C)C[C@H](NC(=O)[C@H](Cc1cccc2ccccc12)NC(=O)OCc1ccccc1)C(=O)NC(C[C@@H]1CCNC1=O)C1CO1 (stereo partly specified)", "Nonstructural polyprotein (Norovirus Hu/GI/10360/2010/VNM, UniProt I1U3K2)", "< 4.00"),
]

* * *

Tested on: Vero
protocol.notes: Cytotoxicity against African green monkey Vero cells assessed as reduction in cell viability after 3 days by hemocytometer
Assay type: cell-based
experimental.context: chlorocebus sabaeus, 72 h
endpoint: CC50

# compound, target.desc, test.value
records = [
    ("CC(C)C[C@H](NC(=O)[C@H](Cc1cccc2ccccc12)NC(=O)OCc1ccccc1)C(=O)NC(C[C@@H]1CCNC1=O)C1OC1S(C)(=O)=O (some centres undefined)", "Vero", "> 100 µM"),
    ("CC(C)C[C@H](NC(=O)[C@H](Cc1cccc2ccccc12)NC(=O)OCc1ccccc1)C(=O)N[C@@H](C[C@@H]1CCCNC1=O)C(O)S(=O)(=O)O (some centres undefined)", "Vero", "> 100 µM"),
    ("CC(C)C[C@H](NC(=O)[C@H](Cc1cccc2ccccc12)NC(=O)OCc1ccccc1)C(=O)N[C@H](CO)Cn1ccnn1", "Vero", "3.2 µM"),
    ("CC(C)C[C@H](NC(=O)[C@H](Cc1cccc2ccccc12)NC(=O)OCc1ccccc1)C(=O)N[C@H](C=O)C[C@@H]1CCNC1=O", "Vero", "> 100 µM"),
]

* * *

pIC50: −log10 of the molar value.
# pIC50 per entry for Nonstructural polyprotein (Norovirus Hu/GI/10360/2010/VNM, UniProt I1U3K2)
endpoint: pIC50

# molecule, result.qualifier, test.value
records = [
    ("CC(C)C[C@H](NC(=O)[C@H](Cc1cccc2ccccc12)NC(=O)OCc1ccccc1)C(=O)N[C@H](/C=C(\\C#N)C(N)=O)C[C@@H]1CCCNC1=O", "=", 6.23),
    ("CC(C)C[C@H](NC(=O)[C@H](Cc1cccc2ccccc12)NC(=O)OCc1ccccc1)C(=O)N[C@@H](C[C@@H]1CCCNC1=O)C(O)S(=O)(=O)O (stereo partly specified)", "=", 6.18),
    ("CC(C)C[C@H](NC(=O)[C@H](Cc1cccc2ccccc12)NC(=O)OCc1ccccc1)C(=O)N[C@@H](C[C@@H]1CCCNC1=O)C(=O)C(F)(F)F", "=", 6.18),
    ("CC(C)C[C@H](NC(=O)[C@H](Cc1cccc2ccccc12)NC(=O)OCc1ccccc1)C(=O)N[C@H](CO)CCC(=O)N1CCC1", "<", 6.00),
    ("CC(C)C[C@H](NC(=O)[C@H](Cc1cccc2ccccc12)NC(=O)OCc1ccccc1)C(=O)N[C@H](C=O)C[C@@H]1CCNC1=O", "=", 7.49),
    ("CC(C)C[C@H](NC(=O)[C@H](Cc1cccc2ccccc12)NC(=O)OCc1ccccc1)C(=O)N[C@H](CS)C[C@@H]1CCNC1=O", "<", 5.00),
]
